- measurement_target: BC2L-C-Nt (rBC2L-CN2) (Burkholderia cenocepacia, UniProt B4EH86)
- Sequence (B4EH86 entry or part of it): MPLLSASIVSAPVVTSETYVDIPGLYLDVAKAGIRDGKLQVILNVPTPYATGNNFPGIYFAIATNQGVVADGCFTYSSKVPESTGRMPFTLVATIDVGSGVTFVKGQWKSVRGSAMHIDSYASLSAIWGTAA
- assay_protocol: Isothermal titration calorimetry (ITC)
- Assay type: binding
- cond: 25 °C, 20 mM Tris HCl pH 7.0, 100 mM NaCl; SD from duplicates
pKd: −log10 of the molar value.
Form field: pKd (one value per entry).

{"compound": "CNCc1ccc(C(=O)N[C@H]2O[C@@H](C)[C@@H](O)[C@@H](O)[C@@H]2O)cc1 [8b]", "pKd": 2.44}
{"compound": "CNCc1ccc(/C=C/[C@H]2O[C@@H](C)[C@@H](O)[C@@H](O)[C@@H]2O)cc1 [28b]", "pKd": 2.47}
{"compound": "C[C@@H]1O[C@H](C#Cc2ccc(C(C)(C)CN)cc2)[C@@H](O)[C@H](O)[C@@H]1O [22a]", "pKd": 3.55}
{"compound": "C[C@@H]1O[C@H](n2cc(-c3ccc(C(C)(C)CN)cc3)nn2)[C@@H](O)[C@H](O)[C@@H]1O [12a]", "pKd": 2.60}
{"compound": "C[C@@H]1O[C@H](C#Cc2ccc(CNC(=N)N)cc2)[C@@H](O)[C@H](O)[C@@H]1O [22g]", "pKd": 3.04}
{"compound": "C[C@@H]1O[C@H](NC(=O)c2ccc(C(C)(C)CN)cc2)[C@@H](O)[C@H](O)[C@@H]1O [8a]", "pKd": 2.59}
{"compound": "CNCc1ccc(C#C[C@H]2O[C@@H](C)[C@@H](O)[C@@H](O)[C@@H]2O)cc1 [22b]", "pKd": 2.91}
{"compound": "CNCc1ccc(-c2cn([C@H]3O[C@@H](C)[C@@H](O)[C@@H](O)[C@@H]3O)nn2)cc1 [12b]", "pKd": 2.20}
{"compound": "C[C@@H]1O[C@H](NC(=O)c2ccc3cc[nH]c3c2)[C@@H](O)[C@H](O)[C@@H]1O [8d]", "pKd": 2.46}
